Source: patent US12295396B2

IC50 listing for selected compounds.
- tested_system: hT2R54 (Homo sapiens, UniProt P59534)
- Construct: expressed in transfected cells; it overexpresses a promiscuous G protein
- Sequence (P59534 1-338): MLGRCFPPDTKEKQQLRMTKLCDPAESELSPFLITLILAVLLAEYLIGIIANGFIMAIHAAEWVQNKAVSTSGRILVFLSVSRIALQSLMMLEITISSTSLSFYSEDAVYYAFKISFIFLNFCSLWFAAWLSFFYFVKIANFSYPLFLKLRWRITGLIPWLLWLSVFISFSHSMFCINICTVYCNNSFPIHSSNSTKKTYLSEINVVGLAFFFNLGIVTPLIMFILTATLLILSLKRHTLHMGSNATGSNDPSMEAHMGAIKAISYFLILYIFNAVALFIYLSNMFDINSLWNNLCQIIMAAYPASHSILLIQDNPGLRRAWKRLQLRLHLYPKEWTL
- experiment_description: Cell-based assay for measuring hT2R54 inhibition (FLIPR calcium, Fluo4AM, acetaminophen as bitter agonist)
- details: Table 2; cells stably expressing hT2R54 and a promiscuous G protein; read-out: hT2R54 IC50
Note: unit nM is implicit; provide only the numeric part.

Worked examples follow.
COc1cc2c(cc1NC(=O)CN1CCN(C(=O)c3ccccc3OC)CC1)OCO2 :: 280
CC(=O)c1cc2c(cc1NC(=O)CN1CCN(C(=O)Nc3ccccc3)CC1)OCO2 :: 50
CC(=O)c1cc2c(cc1NC(=O)CN1CCN(C(=O)Cc3cccs3)CC1)OCO2 :: 30
COCc1ccc(C(=O)N2CCN(CC(=O)Nc3cc4c(cc3OC)OCO4)CC2)cc1 :: 148
COc1cc2c(cc1NC(=O)C(C)N1CCN(C(C)=O)CC1)OCO2 (stereo not shown) :: 1400
COC(=O)c1cc2c(cc1NC(=O)CN1CCN(C(=O)CC3CCCO3)CC1)OCO2 (stereo not shown) :: 439

For this compound ( COCc1cccc(C(=O)N2CCN(CC(=O)Nc3cc4c(cc3C(C)=O)OCO4)CC2)c1 ), measured IC50 is 234

For this compound ( CCOC(=O)N1CCN(CC(=O)Nc2cc3c(cc2C(C)=O)OCO3)CC1 ), measured IC50 is 311

For this compound ( CC(=O)c1cc2c(cc1NC(=O)CN1CCN(C(=O)c3cscn3)CC1)OCO2 ), measured IC50 is 34

For this compound ( COCCOCC(=O)N1CCN(CC(=O)Nc2cc3c(cc2C(C)=O)OCCO3)CC1 ), measured IC50 is 80

====

log10(IC50) listing for selected compounds.
- tested_system: hT2R54 (Homo sapiens, UniProt P59534)
- Construct: expressed in transfected cells; it overexpresses a promiscuous G protein
- experiment_description: Cell-based assay for measuring hT2R54 inhibition (FLIPR calcium, Fluo4AM, acetaminophen as bitter agonist)
- details: Table 8; read-out: hT2R54 IC50
- Protocol: Cells stably expressing hT2R54 and a promiscuous G protein were seeded in 384 well plates 24 hours prior to the experiment. […] Baseline was recorded for 10 seconds, then 25 μl of […] was added onto 25 μl of cells and resulting changes in fluorescence were monitored over an additional 3 minutes. […] The ability of a test compound that blocks bitter taste elicited through hT2R54 was measured in this assay, as follows. […]
Recorded IC50 (log10, nM)

Worked examples follow.
CC(=O)c1cc2c(cc1NC(=O)CC1CCN(C(=O)C(C)(C)C)CC1)OCO2 :: 2.28
COC(=O)c1cc2c(cc1NC(=O)CC1CCN(C(=O)c3ccncc3)CC1)OCO2 :: 2.66
CC(=O)c1cc2c(cc1NC(=O)CC1CCN(C(=O)c3cccnc3)CC1)OCO2 :: 1.71
CC(=O)c1cc2c(cc1NC(=O)CC1CCN(C(=O)Cc3ccccc3)CC1)OCO2 :: 2.69

For this compound ( COCc1cccc(C(=O)N2CCC(CC(=O)Nc3cc4c(cc3C(C)=O)OCCO4)CC2)c1 ), measured log10(IC50) is 2.27

For this compound ( CCC(C)C(=O)N1CCCC(CC(=O)Nc2cc3c(cc2C(C)=O)OCO3)C1 (centres unmarked) ), measured log10(IC50) is 2.23

For this compound ( CC(=O)c1cc2c(cc1NC(=O)CC1CCCN(C(C)=O)C1)OCO2 (centres unmarked) ), measured log10(IC50) is 1.54

====

- tested_system: hT2R54 (Homo sapiens, UniProt P59534)
- Construct: expressed in transfected cells; it overexpresses a promiscuous G protein
- Sequence (P59534 1-338): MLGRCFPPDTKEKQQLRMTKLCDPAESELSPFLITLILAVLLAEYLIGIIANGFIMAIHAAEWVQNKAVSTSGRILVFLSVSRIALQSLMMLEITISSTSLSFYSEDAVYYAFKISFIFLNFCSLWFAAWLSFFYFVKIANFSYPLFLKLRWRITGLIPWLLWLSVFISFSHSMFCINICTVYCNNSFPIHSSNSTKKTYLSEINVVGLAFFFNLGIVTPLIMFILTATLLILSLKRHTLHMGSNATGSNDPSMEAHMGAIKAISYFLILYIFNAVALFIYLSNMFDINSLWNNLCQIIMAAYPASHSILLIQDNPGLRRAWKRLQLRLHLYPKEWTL
- experiment_description: Cell-based assay for measuring hT2R54 inhibition (FLIPR calcium, Fluo4AM, acetaminophen as bitter agonist)
- details: Table 2; cells stably expressing hT2R54 and a promiscuous G protein; read-out: hT2R54 IC50
measurement_label: log10 of IC50 (log10 of the value in nM)
Recorded IC50 (log10, nM)

Worked examples follow.
CC(=O)c1cc2c(cc1NC(=O)CN1CCN(C(=O)C3CCOCC3)CC1)OCO2 :: 2.53
COc1ccc(CC(=O)N2CCN(CC(=O)Nc3cc4c(cc3OC)OCO4)CC2)cc1 :: 3.00
CC(=O)c1cc2c(cc1NC(=O)CN1CCN(C(=O)CC3CCOC3)CC1)OCO2 (stereo not shown) :: 2.30
COc1cc2c(cc1NC(=O)CN1CCN(C(=O)c3ncoc3C)CC1)OCO2 :: 2.75
CC(=O)c1cc2c(cc1NC(=O)CN1CCN(C(=O)c3csnn3)CC1)OCO2 :: 1.48

// assay hT2R54 (Homo sapiens, UniProt P59534), entry CCc1oc(C(=O)N2CCN(CC(=O)Nc3cc4c(cc3C(C)=O)OCO4)CC2)cc1COC , log10 of IC50 value = 1.69

// assay hT2R54 (Homo sapiens, UniProt P59534), entry COc1cc2c(cc1NC(=O)CN1CCN(C(=O)c3cccc(CO)c3)CC1)OCO2 , log10 of IC50 value = 2.78

====

pIC50 listing for selected compounds.
- tested_system: hT2R54 (Homo sapiens)
- Construct: expressed in transfected cells; it overexpresses a promiscuous G protein
- experiment_description: Cell-based assay for measuring hT2R54 inhibition (FLIPR calcium, Fluo4AM, acetaminophen as bitter agonist)
- details: Table 6; cells stably expressing hT2R54 and a promiscuous G protein; read-out: hT2R54 IC50
# pIC50 is unitless: minus log10 of the molar concentration; print number only

Worked examples follow.
CC(=O)c1cc2c(cc1NC(=O)CN1CCC(NC(=O)c3ccccn3)CC1)OCO2 [compound 174] :: 6.57
CC(=O)c1cc2c(cc1NC(=O)CN1CCC(N(C)C(=O)c3cccnc3)CC1)OCO2 [compound 182] :: 6.34
CC(=O)c1cc2c(cc1NC(=O)CN1CCC(NC(=O)c3cccs3)CC1)OCO2 [compound 173] :: 6.96

For this compound ( CC(=O)c1cc2c(cc1NC(=O)CN1CCC(N(C)C(=O)c3ccco3)CC1)OCO2 [compound 181] ), measured pIC50 is 6.17

For this compound ( CC(=O)c1cc2c(cc1NC(=O)CN1CCC(NC(=O)C(C)C)CC1)OCO2 [compound 168] ), measured pIC50 is 6.85

For this compound ( CC(=O)c1cc2c(cc1NC(=O)CN1CCC(NC(=O)c3ccncc3)CC1)OCO2 [compound 176] ), measured pIC50 is 6.35

====

- tested_system: hT2R54 (Homo sapiens, UniProt P59534)
- Construct: expressed in transfected cells; it overexpresses a promiscuous G protein
- experiment_description: Cell-based assay for measuring hT2R54 inhibition (FLIPR calcium, Fluo4AM, acetaminophen as bitter agonist)
- details: Table 4; cells stably expressing hT2R54 and a promiscuous G protein; read-out: hT2R54 IC50
- Method: Cells stably expressing hT2R54 and a promiscuous G protein were seeded in 384 well plates 24 hours prior to the experiment. […] Baseline was recorded for 10 seconds, then 25 μl of […] was added onto 25 μl of cells and resulting changes in fluorescence were monitored over an additional 3 minutes. […] The ability of a test compound that blocks bitter taste elicited through hT2R54 was measured in this assay, as follows. […]
measurement_label: IC50 (nM)
Note: unit nM is implicit; provide only the numeric part.

Worked examples follow.
CCOC(=O)C1CCCN(CC(=O)Nc2cc3c(cc2C(C)=O)OCO3)C1 (stereo not drawn) [compound 115] :: 9
CC(=O)c1cc2c(cc1NC(=O)CN1CCCC(NC(=O)OC(C)(C)C)C1)OCO2 (stereo not drawn) [compound 429] :: 1280
CCN(CCCOC)CC(=O)Nc1cc2c(cc1C(C)=O)OCO2 [compound 427] :: 373
CC(=O)c1cc2c(cc1NC(=O)CN1CCC(O)C1)OCO2 (stereo not drawn) [compound 424] :: 1590
COc1cc2c(cc1NC(=O)CN1CC(C)OC(C)C1)OCO2 (stereo not drawn) [compound 443] :: 322

// switching to the query molecule
For this molecule ( COc1cc2c(cc1NC(=O)CN1CCOCC1)OCO2 [compound 143] ), measured IC50 is 142
